Form field: IC50 at 18 h (one value per entry).
# experiment-description: Cytotoxicity (MTT) of UV-absorbing compounds in HaCaT culture without irradiation
# Format: cell-based, human
# condition: human, HaCaT keratinocytes, MTT, no irradiation, mean of 3 measurements
readout-type: IC50 at 18 h (µM)

compound="O=c1c(O[C@@H]2O[C@H](CO)[C@H](O)[C@H](O)[C@H]2O)c(-c2ccc(O)c(O)c2)oc2cc(O)cc(O)c12 [hyperoside]" units_symbol=µM bound_operator=> recorded_number=300
compound="Cc1ccc(C=C2C(=O)C3(C)CCC2C3(C)C)cc1 (stereo not shown) [3-(4-methylbenzylidene)camphor]" units_symbol=µM bound_operator== recorded_number=28
compound="COc1cc(O)c2c(=O)c(OC)c(-c3ccc(O)c(OC)c3)oc2c1 [pachypodol]" units_symbol=µM bound_operator== recorded_number=5.1
compound="O=C(c1ccccc1)c1ccc(O)cc1O [2,4-dihydroxybenzophenone]" units_symbol=µM bound_operator== recorded_number=85
